biological target: Integrin alpha-V/beta-3 (Homo sapiens, UniProt P05106+P06756); assay: Binding affinity evaluated against vitronectin receptor (alphaV-beta3) receptor
Sequence (P05106 27-788 limits assumed): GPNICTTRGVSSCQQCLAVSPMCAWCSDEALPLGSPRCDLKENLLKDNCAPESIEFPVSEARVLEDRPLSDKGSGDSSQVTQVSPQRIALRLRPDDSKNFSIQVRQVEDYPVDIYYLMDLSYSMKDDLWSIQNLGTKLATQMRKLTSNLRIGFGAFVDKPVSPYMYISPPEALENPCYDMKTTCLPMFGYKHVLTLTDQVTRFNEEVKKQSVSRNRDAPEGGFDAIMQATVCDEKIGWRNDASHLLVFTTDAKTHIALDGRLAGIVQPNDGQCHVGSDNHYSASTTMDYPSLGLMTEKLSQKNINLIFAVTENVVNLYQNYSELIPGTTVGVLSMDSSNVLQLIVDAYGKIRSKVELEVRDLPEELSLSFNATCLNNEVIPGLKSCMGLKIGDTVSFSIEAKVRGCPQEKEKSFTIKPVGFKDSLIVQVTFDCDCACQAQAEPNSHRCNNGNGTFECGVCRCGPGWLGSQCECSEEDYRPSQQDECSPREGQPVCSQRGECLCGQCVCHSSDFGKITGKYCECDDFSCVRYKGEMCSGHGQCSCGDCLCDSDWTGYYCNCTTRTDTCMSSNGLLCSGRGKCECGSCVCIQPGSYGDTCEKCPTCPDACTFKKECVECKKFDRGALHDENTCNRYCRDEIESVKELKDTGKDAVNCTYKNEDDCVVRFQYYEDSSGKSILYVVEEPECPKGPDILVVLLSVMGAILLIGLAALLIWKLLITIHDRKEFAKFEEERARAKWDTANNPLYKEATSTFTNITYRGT
Sequence (P06756 31-889 limits assumed): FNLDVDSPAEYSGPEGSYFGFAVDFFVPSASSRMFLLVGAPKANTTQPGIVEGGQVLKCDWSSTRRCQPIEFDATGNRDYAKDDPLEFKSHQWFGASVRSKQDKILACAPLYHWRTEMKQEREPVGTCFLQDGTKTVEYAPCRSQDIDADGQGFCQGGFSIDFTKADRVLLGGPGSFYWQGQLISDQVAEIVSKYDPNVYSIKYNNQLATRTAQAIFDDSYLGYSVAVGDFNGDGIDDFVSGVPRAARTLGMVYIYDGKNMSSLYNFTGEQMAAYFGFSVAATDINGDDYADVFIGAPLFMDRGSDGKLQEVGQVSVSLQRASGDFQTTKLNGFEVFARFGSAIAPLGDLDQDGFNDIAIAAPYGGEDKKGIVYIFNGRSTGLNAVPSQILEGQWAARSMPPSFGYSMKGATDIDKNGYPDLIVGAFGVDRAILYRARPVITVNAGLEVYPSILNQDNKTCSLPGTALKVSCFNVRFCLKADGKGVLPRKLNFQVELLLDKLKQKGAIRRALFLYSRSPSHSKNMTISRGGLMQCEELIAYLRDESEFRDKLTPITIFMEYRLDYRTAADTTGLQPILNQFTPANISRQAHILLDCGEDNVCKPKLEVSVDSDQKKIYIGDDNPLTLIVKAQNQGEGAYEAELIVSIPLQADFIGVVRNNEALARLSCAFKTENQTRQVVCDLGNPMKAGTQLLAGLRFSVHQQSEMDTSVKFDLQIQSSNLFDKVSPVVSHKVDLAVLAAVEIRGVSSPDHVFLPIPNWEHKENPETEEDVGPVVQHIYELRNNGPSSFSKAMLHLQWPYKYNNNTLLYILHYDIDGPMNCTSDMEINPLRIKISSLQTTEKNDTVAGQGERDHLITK
Sequence (P06756 891-1048 limits assumed): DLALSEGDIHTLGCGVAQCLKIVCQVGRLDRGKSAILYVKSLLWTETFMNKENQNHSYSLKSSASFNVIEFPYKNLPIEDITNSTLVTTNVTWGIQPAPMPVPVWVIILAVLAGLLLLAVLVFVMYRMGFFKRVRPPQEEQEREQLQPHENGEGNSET
measurement-label: log10 of Ki (log10 of the value in nM)
# log10 transformed; quantity=Ki; unit=nM

Known log10 of Ki results, listed for orientation:
compound: CN(Cc1nc2cc(F)c(F)cc2[nH]1)C(=O)c1ccc2c(c1)CN(C)C(=O)[C@H](CC(=O)O)N2
recorded-number: 0.40
--
compound: CN1Cc2cc(C(=O)N(Cc3nc4ccccc4[nH]3)C3CCCCC3)ccc2N[C@@H](CC(=O)O)C1=O
recorded-number: 2.88
--
compound: CN1Cc2cc(C(=O)N(CCc3ccccc3)Cc3nc4ccccc4[nH]3)ccc2N[C@@H](CC(=O)O)C1=O
recorded-number: 0.70
--
compound: COCCN1Cc2cc(C(=O)NCc3nc4ccccc4[nH]3)ccc2N[C@@H](CC(=O)O)C1=O (racemic)
recorded-number: 1.45

# input Tell me the measured log10 of Ki of `CN1Cc2cc(C(=O)N(Cc3nc4ccccc4[nH]3)Cc3nc4ccccc4[nH]3)ccc2N[C@@H](CC(=O)O)C1=O` , please.
# output 0.40

---

molecular target: Integrin alpha-IIb/beta-3 (Homo sapiens, UniProt P05106+P08514); assay: Affinity for alphaIIb-beta3 receptor
Sequence (P05106 27-788 limits assumed): as the sequence (P05106 27-788 limits assumed) above
Sequence (P08514 32-887 limits assumed): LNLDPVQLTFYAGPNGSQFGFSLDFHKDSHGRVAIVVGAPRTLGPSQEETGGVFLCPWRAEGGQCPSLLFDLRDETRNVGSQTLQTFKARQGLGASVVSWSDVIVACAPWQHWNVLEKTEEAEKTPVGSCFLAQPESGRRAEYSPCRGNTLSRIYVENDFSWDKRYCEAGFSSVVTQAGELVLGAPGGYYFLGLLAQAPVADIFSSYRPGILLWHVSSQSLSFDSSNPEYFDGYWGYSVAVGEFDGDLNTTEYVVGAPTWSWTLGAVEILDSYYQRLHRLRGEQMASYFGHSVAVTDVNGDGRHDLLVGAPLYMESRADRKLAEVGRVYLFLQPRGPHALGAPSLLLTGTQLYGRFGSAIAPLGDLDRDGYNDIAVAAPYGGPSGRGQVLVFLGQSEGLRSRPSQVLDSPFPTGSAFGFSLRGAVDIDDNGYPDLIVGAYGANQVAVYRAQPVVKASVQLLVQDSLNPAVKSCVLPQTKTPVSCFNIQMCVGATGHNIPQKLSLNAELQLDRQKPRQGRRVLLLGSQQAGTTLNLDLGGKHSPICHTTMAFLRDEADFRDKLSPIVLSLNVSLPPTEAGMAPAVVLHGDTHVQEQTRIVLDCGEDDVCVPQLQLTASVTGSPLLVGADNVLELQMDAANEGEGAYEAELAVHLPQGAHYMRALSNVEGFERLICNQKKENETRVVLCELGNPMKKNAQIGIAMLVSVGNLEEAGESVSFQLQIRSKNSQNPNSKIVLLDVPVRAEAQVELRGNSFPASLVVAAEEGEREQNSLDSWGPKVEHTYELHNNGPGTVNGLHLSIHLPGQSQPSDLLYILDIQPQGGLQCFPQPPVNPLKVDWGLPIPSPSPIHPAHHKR
Sequence (P08514 891-1039 limits assumed): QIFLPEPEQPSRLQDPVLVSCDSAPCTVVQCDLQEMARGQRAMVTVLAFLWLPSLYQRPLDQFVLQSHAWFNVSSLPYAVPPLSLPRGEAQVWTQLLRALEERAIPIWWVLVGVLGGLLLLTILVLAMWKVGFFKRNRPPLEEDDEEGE
# note: exactly 30 µM is not below, so it is not fulfilled; use fulfilled for Ki strictly under it

# input Report whether reported Ki is lower than 30 µM (strictly) for CN1Cc2cc(C(=O)NCc3cc4ccccc4[nH]3)ccc2N[C@@H](CC(=O)O)C1=O (racemic)
# output not fulfilled

# input Report whether reported Ki is lower than 30 µM (strictly) for CN(Cc1nc2ccccc2s1)C(=O)c1ccc2c(c1)CN(C)C(=O)[C@H](CC(=O)O)N2 (racemic)
# output fulfilled

# input Report whether reported Ki is lower than 30 µM (strictly) for CN1Cc2cc(C(=O)NCc3ncc[nH]3)ccc2N[C@@H](CC(=O)O)C1=O (racemic)
# output not fulfilled

# input Report whether reported Ki is lower than 30 µM (strictly) for `CN(Cc1nc2ccccc2n1C)C(=O)c1ccc2c(c1)CN(C)C(=O)[C@H](CC(=O)O)N2`
# output fulfilled

# input Report whether reported Ki is lower than 30 µM (strictly) for `CN(Cc1nc2c([nH]1)CCCC2)C(=O)c1ccc2c(c1)CN(C)C(=O)[C@H](CC(=O)O)N2`
# output fulfilled

---

A collection of molecules and their measured pIC50
target: Integrin alpha-V/beta-3 (Homo sapiens, UniProt P05106+P06756); assay: Effect against adhesion of HEK 293 cells transfected with human alpha-v beta-3 to vitronectin coated plates
Please note pIC50 is a logarithmic value: minus log10 of concentration in mol/L. Answer with that number alone.

# input Tell me the measured pIC50 of CN(Cc1nc2ccccc2[nH]1)C(=O)c1ccc2c(c1)CN(Cc1ccccc1)C(=O)[C@H](CC(=O)O)N2 (racemic) , please.
# output 6.29

---

A collection of compounds and their measured pKi
biological target: Integrin alpha-V/beta-3 (Homo sapiens, UniProt P05106+P06756); experiment: Binding affinity evaluated against vitronectin receptor (alphaV-beta3) receptor; format: protein-complex assay
Please note pKi is a logarithmic value: minus log10 of concentration in mol/L. Answer with that number alone.

Known pKi results, listed for orientation:
compound: COc1ccc(OC)c2[nH]c(CN(C)C(=O)c3ccc4c(c3)CN(C)C(=O)[C@H](CC(=O)O)N4)nc12
pKi: 5.89

compound: O=C(O)C[C@@H]1Nc2ccc(C(=O)NCc3nc4ccccc4[nH]3)cc2CN(CCc2cccnc2)C1=O
pKi: 8.00

compound: CN(Cc1nc2ccccc2n1C)C(=O)c1ccc2c(c1)CN(C)C(=O)[C@H](CC(=O)O)N2
pKi: 7.15

compound: CC(C)N1Cc2cc(C(=O)NCc3nc4ccccc4[nH]3)ccc2N[C@@H](CC(=O)O)C1=O (racemic)
pKi: 7.70

compound: CN1Cc2cc(C(=O)NCc3nc4ccccc4[nH]3)ccc2N[C@@H](CC(=O)O)C1=O (racemic)
pKi: 7.62

# input Tell me the measured pKi of CN(Cc1nc2ccccc2[nH]1)C(=O)c1ccc2c(c1)CN(CCC(C)(C)C)C(=O)[C@H](CC(=O)O)N2 (racemic) , please.
# output 8.80

# input Tell me the measured pKi of O=C(O)C[C@@H]1Nc2ccc(C(=O)NCc3nc4ccccc4[nH]3)cc2CN(CCc2ccc3c(c2)OCO3)C1=O (racemic) , please.
# output 8.19

# input Tell me the measured pKi of CN(Cc1nc2ccccc2s1)C(=O)c1ccc2c(c1)CN(C)C(=O)[C@H](CC(=O)O)N2 (racemic) , please.
# output 6.32

---

biological target: Integrin alpha-V/beta-3 (Homo sapiens, UniProt P05106+P06756); assay: Binding affinity evaluated against vitronectin receptor (alphaV-beta3) receptor
measurement-label: pKi
Please note pKi is a logarithmic value: minus log10 of concentration in mol/L. Answer with that number alone.

compound: CN(Cc1nc2cc3c(cc2[nH]1)OCO3)C(=O)c1ccc2c(c1)CN(C)C(=O)[C@H](CC(=O)O)N2
pKi: 8.05
//
compound: CN(Cc1nc2ccccc2[nH]1)C(=O)c1ccc2c(c1)CN(CCc1ccc3c(c1)OCO3)C(=O)[C@H](CC(=O)O)N2 (racemic)
pKi: 8.22
//
compound: COCCN1Cc2cc(C(=O)N(C)Cc3nc4ccccc4[nH]3)ccc2N[C@@H](CC(=O)O)C1=O (racemic)
pKi: 8.52
//
compound: CN(Cc1nc2ccc([N+](=O)[O-])cc2[nH]1)C(=O)c1ccc2c(c1)CN(C)C(=O)[C@H](CC(=O)O)N2 (racemic)
pKi: 7.85
//
compound: CN(Cc1nc2c(N)cccc2[nH]1)C(=O)c1ccc2c(c1)CN(C)C(=O)[C@H](CC(=O)O)N2
pKi: 8.26

# input Tell me the measured pKi of `CN(Cc1nc2ccc(C(F)(F)F)cc2[nH]1)C(=O)c1ccc2c(c1)CN(C)C(=O)[C@H](CC(=O)O)N2` , please.
# output 8.07

# input Tell me the measured pKi of CN1Cc2cc(C(=O)NCc3ncc[nH]3)ccc2N[C@@H](CC(=O)O)C1=O (racemic) , please.
# output 5.54

# input Tell me the measured pKi of CN(Cc1nc2ccccc2[nH]1)C(=O)c1ccc2c(c1)CN(Cc1ccccc1)C(=O)[C@H](CC(=O)O)N2 (racemic) , please.
# output 8.72

# input Tell me the measured pKi of `CCCCN(Cc1nc2ccccc2[nH]1)C(=O)c1ccc2c(c1)CN(C)C(=O)[C@H](CC(=O)O)N2` , please.
# output 8.46

# input Tell me the measured pKi of `CN(Cc1nc2ccccc2[nH]1)C(=O)c1ccc2c(c1)CNC(=O)[C@H](CC(=O)O)N2` , please.
# output 8.19

# input Tell me the measured pKi of CN1Cc2cc(C(=O)NCc3cc4ccccc4[nH]3)ccc2N[C@@H](CC(=O)O)C1=O (racemic) , please.
# output 6.96

# input Tell me the measured pKi of `Cc1cccc2[nH]c(CN(C)C(=O)c3ccc4c(c3)CN(C)C(=O)[C@H](CC(=O)O)N4)nc12` , please.
# output 8.70

# input Tell me the measured pKi of `COc1cc2nc(CN(C)C(=O)c3ccc4c(c3)CN(C)C(=O)[C@H](CC(=O)O)N4)[nH]c2cc1OC` , please.
# output 6.74

---

A collection of molecules and their measured IC50
target: Integrin alpha-V/beta-3 (Homo sapiens, UniProt P05106+P06756); experiment: Effect against adhesion of HEK 293 cells transfected with human alpha-v beta-3 to vitronectin coated plates
Reply with a number, then the unit it belongs to.

# input What reported IC50 corresponds to `CCCCN(Cc1nc2ccccc2[nH]1)C(=O)c1ccc2c(c1)CN(C)C(=O)[C@H](CC(=O)O)N2` on Integrin alpha-V/beta-3 (Homo sapiens, UniProt P05106+P06756)?
# output 520 nM

# input What reported IC50 corresponds to COCCN1Cc2cc(C(=O)NCc3nc4ccccc4[nH]3)ccc2N[C@@H](CC(=O)O)C1=O (racemic) on Integrin alpha-V/beta-3 (Homo sapiens, UniProt P05106+P06756)?
# output 3000 nM

# input What reported IC50 corresponds to `CN(Cc1nc2cc3c(cc2[nH]1)OCO3)C(=O)c1ccc2c(c1)CN(C)C(=O)[C@H](CC(=O)O)N2` on Integrin alpha-V/beta-3 (Homo sapiens, UniProt P05106+P06756)?
# output 690 nM

# input What reported IC50 corresponds to `CN(Cc1nc2c(N)cccc2[nH]1)C(=O)c1ccc2c(c1)CN(C)C(=O)[C@H](CC(=O)O)N2` on Integrin alpha-V/beta-3 (Homo sapiens, UniProt P05106+P06756)?
# output 810 nM

# input What reported IC50 corresponds to `Cc1cccc2[nH]c(CN(C)C(=O)c3ccc4c(c3)CN(C)C(=O)[C@H](CC(=O)O)N4)nc12` on Integrin alpha-V/beta-3 (Homo sapiens, UniProt P05106+P06756)?
# output 480 nM

# input What reported IC50 corresponds to CC(C)(C)CCN1Cc2cc(C(=O)NCc3nc4ccccc4[nH]3)ccc2N[C@@H](CC(=O)O)C1=O (racemic) on Integrin alpha-V/beta-3 (Homo sapiens, UniProt P05106+P06756)?
# output 1400 nM

# input What reported IC50 corresponds to O=C(O)C[C@@H]1Nc2ccc(C(=O)NCc3nc4ccccc4[nH]3)cc2CN(CCc2ccc3c(c2)OCO3)C1=O (racemic) on Integrin alpha-V/beta-3 (Homo sapiens, UniProt P05106+P06756)?
# output 670 nM

# input What reported IC50 corresponds to CN(Cc1nc2ccc([N+](=O)[O-])cc2[nH]1)C(=O)c1ccc2c(c1)CN(C)C(=O)[C@H](CC(=O)O)N2 (racemic) on Integrin alpha-V/beta-3 (Homo sapiens, UniProt P05106+P06756)?
# output 3000 nM

# input What reported IC50 corresponds to `CN(Cc1nc2cc(F)c(F)cc2[nH]1)C(=O)c1ccc2c(c1)CN(C)C(=O)[C@H](CC(=O)O)N2` on Integrin alpha-V/beta-3 (Homo sapiens, UniProt P05106+P06756)?
# output 540 nM

# input What reported IC50 corresponds to CN(Cc1nc2ccccc2[nH]1)C(=O)c1ccc2c(c1)CN(CCC(C)(C)C)C(=O)[C@H](CC(=O)O)N2 (racemic) on Integrin alpha-V/beta-3 (Homo sapiens, UniProt P05106+P06756)?
# output 180 nM

# input What reported IC50 corresponds to `CN1Cc2cc(C(=O)N(CCc3ccccc3)Cc3nc4ccccc4[nH]3)ccc2N[C@@H](CC(=O)O)C1=O` on Integrin alpha-V/beta-3 (Homo sapiens, UniProt P05106+P06756)?
# output 280 nM

# input What reported IC50 corresponds to `CN(Cc1nc2ccc(C(F)(F)F)cc2[nH]1)C(=O)c1ccc2c(c1)CN(C)C(=O)[C@H](CC(=O)O)N2` on Integrin alpha-V/beta-3 (Homo sapiens, UniProt P05106+P06756)?
# output 1000 nM

# input What reported IC50 corresponds to CN(Cc1nc2cc(Cl)ccc2[nH]1)C(=O)c1ccc2c(c1)CN(C)C(=O)[C@H](CC(=O)O)N2 (racemic) on Integrin alpha-V/beta-3 (Homo sapiens, UniProt P05106+P06756)?
# output 900 nM

# input What reported IC50 corresponds to O=C(O)C[C@@H]1Nc2ccc(C(=O)NCc3nc4ccccc4[nH]3)cc2CN(CC(=O)O)C1=O (racemic) on Integrin alpha-V/beta-3 (Homo sapiens, UniProt P05106+P06756)?
# output 4500 nM

# input What reported IC50 corresponds to O=C(O)C[C@@H]1Nc2ccc(C(=O)NCc3nc4ccccc4[nH]3)cc2CN(CCc2ccccc2)C1=O (racemic) on Integrin alpha-V/beta-3 (Homo sapiens, UniProt P05106+P06756)?
# output 750 nM

# input What reported IC50 corresponds to `O=C(O)C[C@@H]1Nc2ccc(C(=O)NCc3nc4ccccc4[nH]3)cc2CNC1=O` on Integrin alpha-V/beta-3 (Homo sapiens, UniProt P05106+P06756)?
# output 5000 nM

# input What reported IC50 corresponds to `CN(Cc1nc2ccccc2[nH]1)C(=O)c1ccc2c(c1)CN(CCc1ccccc1)C(=O)[C@H](CC(=O)O)N2` on Integrin alpha-V/beta-3 (Homo sapiens, UniProt P05106+P06756)?
# output 90 nM

# input What reported IC50 corresponds to COCCN1Cc2cc(C(=O)N(C)Cc3nc4ccccc4[nH]3)ccc2N[C@@H](CC(=O)O)C1=O (racemic) on Integrin alpha-V/beta-3 (Homo sapiens, UniProt P05106+P06756)?
# output 340 nM

# input What reported IC50 corresponds to `CN1Cc2cc(C(=O)N(CC#N)Cc3nc4ccccc4[nH]3)ccc2N[C@@H](CC(=O)O)C1=O` on Integrin alpha-V/beta-3 (Homo sapiens, UniProt P05106+P06756)?
# output 810 nM

# input What reported IC50 corresponds to `CN1Cc2cc(C(=O)N(Cc3nc4ccccc4[nH]3)Cc3nc4ccccc4[nH]3)ccc2N[C@@H](CC(=O)O)C1=O` on Integrin alpha-V/beta-3 (Homo sapiens, UniProt P05106+P06756)?
# output 480 nM

# input What reported IC50 corresponds to CN(Cc1nc2ccccc2[nH]1)C(=O)c1ccc2c(c1)CN(CCc1ccc3c(c1)OCO3)C(=O)[C@H](CC(=O)O)N2 (racemic) on Integrin alpha-V/beta-3 (Homo sapiens, UniProt P05106+P06756)?
# output 250 nM
